Reference source: the DeepSol protein solubility set

- run description: soluble on expression in E. coli; label from the status in PepcDB or PDB records
outcome measure: soluble on expression in E. coli

Prompt line: # get_value(readout='soluble on expression in E. coli', item= "MQDDPSTSPLTHSATLRRLLYEALDALGLDPTRVYRSVYRRIPLPPPTLGGRLVHDNAPLFWTELAAVTGDADIGLHLGEAMKPRLLDVVGYLLLSARDLEEALRSFVRFQHILSGGFAARLEVEGETARLILDINYLGYASLRQQIECLMLLFLKLLALISDDEFVAERIEFRHRAPPRLGEHRRLFGRLPLFSRPHDALVFSAALLRRPSRNANPDMHDVLTRHAEEQSRELSENRLLNRVRYLIELRLGEGYGLRQCAAELGLGSGALQRALAAGGASFRQVRDEVRRQRASEMLLAGRAIREVAKACGFAELSPFYRAFRRWHAAPPEQYRARLAKREEGYSTSGT" )
Response line: not soluble

Prompt line: Similarly, "MGSDKIHHHHHHMITSVAVVGCGWFGLPLAKALLSQGLKVTGSKRSPQEAEALSADGITGFALDLETLESEDLSSQTREAITQGLACDAIVINIPPGLRRGDNGYLDRLKRLKALMGTHEYQRIIFISTSGVYPAGGDSSGSGCVESDAKVHSPASETLLAAEALFSGANSADGVSNNHSDGSESNNSCVVVRFAGLIGPKRHPGRFLAGREDVPGGNLAVNMVHLDDCIGAVTLLLKAEGALSPAYNLCAPLHPTKAEFYQKAATQQGLTPPSFIEGDLAEDKRVDGGLITRELNYQYKFTDPLAMLTHC" ?
Response line: not soluble

* * *

- run description: soluble on expression in E. coli; label from the status in PepcDB or PDB records
outcome measure: soluble on expression in E. coli

Prompt line: # get_value(readout='soluble on expression in E. coli', item= "MPIPKSAKSDYTKEQKDLVGNICQCKDFYKILNVDKKASPDEIRIAFRKRIREVHPDKCKHPSATEASKVVNNAFSLLMDPAKRRQYDLQNAETSNENLYKRCNRNKNQRKQEYSNTQRQNHKKSEPSNGKRNEQNSSFKQDHNSKNHQSNHQKTKNKKSNPYSNQNNFNNTRKDYREEKSGFSWNTGSA" )
Response line: not soluble

Prompt line: Similarly, "MRILFIGDVVGSLGREALATYVPKLKKKYRPQVTIANGENAASGRGITGKIYKKFLQDGVDVVTMGNHTWDNKDIFEFIDDAKKMVRPANFPEDVPGQGMVFVKVNQLELAVINLQARTFMVPLEDPFKKAAELVAIARKRTPLIFVDFHGETTSEKQAMSWFLDGQVSAVVGTHTHVQTNDARILPKGTAFLSDVGMTGPYDGILGMKREPIIEKFMTALPKRFEVVETGRTILSACILEIDDQTGQAKMIEPIQISEDRPFQE" ?
Response line: not soluble

* * *

- run description: soluble on expression in E. coli; label from the status in PepcDB or PDB records
outcome measure: soluble on expression in E. coli

Prompt line: # get_value(readout='soluble on expression in E. coli', item= "MMQSGYRAPISRKSVVNTTPATPARTDRRTVSMAQQLLMPKATAVWLVDNTALSFDQIATFCKLHPLEVKAIADGEAAQGIKGLDPIATGQLSRDEIARAEGNPSHKLKLSEPKVRVPESKRRGPRYTPVSKRQDRPNAILWLVRNHPELKDAQISRLVGTTKSTIEQIRDRTHWNSANLTPMDPVTLGLCSQIDLDLEVERASRGRPLPTAEELGNTLQPATATEGLDYNNYQREEEQQIDADAVFKKLSSLKSAPKDEDEDDQYLEHHHHHH" )
Response line: soluble

Prompt line: Similarly, "MGILSDKDIAYLKDLFGKELKRKVKIVFFKTEDKTRCQYCEITEQVLEELVSVDPKLELEIHDFDSDKEAVEKYQVEMVPATILLPEDGKDYGIRFYGVPSGHEFGTLIQDIITVSEGKPQLSEESIQKLQSLEEPIRISVFVTPTCPYCPRAVLMAHNMAMASDKIIGEMIEANEYWELSEKFGVSSVPHIVVNRDPSKFFVGAYPEKEFINEVLRLAKG" ?
Response line: soluble

* * *

- run description: soluble on expression in E. coli; label from the status in PepcDB or PDB records
outcome measure: soluble on expression in E. coli

Reference set, count: 8
Prompt line: # get_value(readout='soluble on expression in E. coli', item= "MMVRVMRYKKVPVKKIVNKIIDECDVILLVLDARDPEMTRNRELEKKIKAKGKKLIYVLNKADLVPKDILEKWKEVFGENTVFVSAKRRLGTKILREMIKQSLKEMGKKEGKVGIVGYPNVGKSSIINALTGKRKALTGSVAGLTKGEQWVRLTKNIKLMDTPGVLEMRDEDDLVISGALRLEKVENPIPPALKILSRINNFDNSIIKEYFGVDYEEVDEELLKKIGNKRSYLTKGGEVDLVRTAKTIIKEYQDGKLNYYKVDLKKYGQDRERDISFITKYLKDFPFIEDAKMIVTHLKDFDGLYKKIKKPVLGSEEIDGNIVVVSFGEKTKDACRKKVENLCRERNIEVLSKFGDKIGANNIYVAVGKRVKE" )
Response line: soluble

Prompt line: Similarly, "MNKILLQCDNLCKRYQEGTVQTDVLHDVSFSIGEGEMMAIVGSSGSGKSTLLHLLGGLDTPTSGDVIFSGQPMSKLSSAAKAELRNQKLGFIYQFHHLLPDFTALENVAMPLLIGKKKPAEIDARAREMLHAVGLEHRATHRPSELSGGERQRVAIARALVNNPRLVLADEPTGNLDARNADSIFELLGELNRLQGTAFLVVTHDLQLAKRMSRQLEMRDGRLTAELSLMGAE" ?
Response line: not soluble

Prompt line: Similarly, "AEEGAVAVCVRVRPLNSREESLGETAQVYWKTDNNVIYQVDGSKSFNFDRVFHGNETTKNVYEEIAAPIIDSAIQGYNGTIFAYGQTASGKTYTMMGSEDHLGVIPRAIHDIFQKIKKFPDREFLLRVSYMEIYNETITDLLCGTQKMKPLIIREDVNRNVYVADLTEEVVYTSEMALKWITKGEKSRHYGETKMNQRSSRSHTIFRMILESREKGEPSNCEGSVKVSHLNLVDLAGSERAAQTGAAGVRLKEGCNINRSLFILGQVIKKLSDGQVGGFINYRDSKLTRILQNSLGGNPKTRIICTITPVSFDETLTALQFASTAKYMKNTPYVNEVSTDEALEHHHHHH" ?
Response line: soluble

Prompt line: Similarly, "MDVKWEGFSGVEMEEVKRNVFLTTLEQLKGWARSSSLWPLTFGLACCAIEMMAVGGAHYDLDRFGSFFRASPRQADVMIVSGTVTKKMAPLLRRLYDQMPEPKWVIAMGSCATAGGPYVKSYSVVKGVDQIVPVDVYIPGCPPNPAALIYGIHKLKEKIRLEAKTGKKVL" ?
Response line: not soluble

Prompt line: Similarly, "MEQEQRGMAALLSKFRIDYSDVYVIADIGKKPRQETMNTWQSVIDPFIAQDGSCPIGMTTKSELSAQRDKTYRQLRAGELLNEHSINADLIVMTLPVPRKGMVSSSLYMSWLEVMTRNLPPVLLVRGNQQSVNTSSSSTASSPHHLIIPALAINPHLKVFPSHISLKCFFFFRFLLKAYAAAVHPPSRFLCYMKKVTDSIFVSLMNNSRLYCLL" ?
Response line: not soluble

Prompt line: Similarly, "MGSDKIHHHHHHMSELITTGVDIGSGCIKTVVFKVNGDKVEWLGKETSRIRNRDPFQLTTETYNHMLKSAGVDAKDVAYVASTGDAENLSFATGHFYSMTTHGRGGLYLNPEARAVLDIGALNGRAIRMDGVGKVLSYKMTSQCASGSGQFLENIARYLGIAQDEIGSLSMKADDPEKVSSICAVLAETDVINMVSRGISASNILKGIHVSMAVRLAKLLKSIGAVDGIVQVTGGLALDTGLVAALNEAAEQEKVNLKAVSHPDSIYAGAIGAALWGAFRHEKLARLGQAA" ?
Response line: not soluble

Prompt line: Similarly, "MGSDKIHHHHHHMYMIKQNFTTKVYPLKQFEGEYSEVAYAGDSQADDVIVFIHGALLTYKIMTMFEPYFRDYKLIFINCPSRGRSSDLDRDTHTLDDYAARIYDVLTQIVKEQQIKELSIVGYSMGGMIATRLLKYNTLPVSHLIYLHSAAKITPDASMLARLFTSESKRAVLKDEIKAVKNLPQYILDKTIYAQKENALDLVQFIAPIKTIITDMIYTINTDYLPDIDEIKQFPKILFMSGKEDQIIPYTDSQATLEKFKALGGETKEVIYPGIGHIDFPSVLETQSDGQTGVVDEIKAWISKK" ?
Response line: not soluble

Prompt line: Similarly, "MNTQILGLHHVTAMTSSAEKIYHFFTDILGLRLIKKTVNQDDIETYHLFFADDAGSPGTDMTFFDFPGLPKGTKGTNTISRTSFRVKDDATLDYWVSRFNEYAIDHGEIQERFGKKYLEFEDFDNQRYQLISDEKNQCVAAGTPWKKSNVPSEHALIGLGPAFVTVENYEHLQLVLTEVLGFKLIDAEGSFHLFEVGEGGNGASIIVEHREDLPAAQEGYGNVHHLALRVADEEALRFWIEKINRLEFPNSGFVERFYFKSEYFLAATHVLFELATDGPGFLEDETYEHAGEKLSLPPFLEPKRAGIEEFVRPFDTSDANVQRN" ?
Response line: not soluble

---
Prompt line: # get_value(readout='soluble on expression in E. coli', item= "HRVGLYEKALPNHLSWEEKLACTKELGFDFLEISVDESDERRSRLDWDDATIYSLHRLCEEYGVPLQSMCLSAHRKFPFGSADPALRDEALKIMQKAITLAYKLGIRTIQLAGYDVYYEPANSATHQRFIEGMQHAARLAERAGVMLAVEIMDTPYLNALSKFEVLNRQIQSPFFTAYPDVGNISGWNYDLLTELSLSKPHITQIHLKDTYKVSEQYAGQFRDLVIGEGDVDFDELFCRLKALDCVVPLVIEMWAHDEQWQQHIHTAQRRLNQACDRAELP" )
Response line: not soluble

Prompt line: Similarly, "MADLFPADFEPVFINIGDLELYNQDLDDEGTPTEAWTTFREEVKQVDGVMFVTPEYNRSVPAVLKNALDVGSRPYGESVWDKKPGLVVSVSPGAISGFGANHHLRQSLVFLNVPTLQQPEAYIGGITNLIGEDGKIIDGTVGFLQSIVDAYVDFFNRLTA" ?
Response line: not soluble

Prompt line: Similarly, "MGSDKIHHHHHHMGKLLTPDDLPIVRGRVYHLDLAPEELARRVIVVGDPDRVPVLAEELLALREVDRFHRGFRTITGVTAETGQRVSFVTSGIGAPSTEIVLNELAALNEVDFASMTRRERWQPLTLVRLGTSGGLNPVTPVGTLILTDYVVGLDNTALYYDIPLPDEACALLEEKVGSVLTGTELPGARFAGKIAPYAARSDRGLLASLTAAASTLELNWTRGLTISSAGFFAEQGRGVARVGTTQVNLLDAFERLASPWPGLELQNMEMEAGFFLHFLGGMRYRAAVVCVVINQRSSGVFMADYRRQVLDGARLILRAFKEYGDARAKSGALA" ?
Response line: not soluble
